Tested on: S.aureus ATCC 25923
ASSAY_PROTOCOL: MIC by agar incorporation method, S.aureus 25923
Type: cell-based, Staphylococus aureus
Design: unit not given here
EXPERIMENTAL_CONTEXT: Mueller Hinton agar, 10^4 CFU/spot, 18 hours
In Vitro (MIC) S.aureus 25923 overview
PROPERTY: In Vitro (MIC) S.aureus 25923

COMPOUND | PROPERTY | SIGN | READOUT_NUMBER
CC(=O)NC[C@H]1CN(c2ccc(N3CCN(C(=O)c4ccc(N)s4)CC3)c(F)c2)C(=O)O1 | In Vitro (MIC) S.aureus 25923 | = | 8
CC(=O)NC[C@H]1CN(c2ccc(N3CCN(Cc4cc(Br)c([N+](=O)[O-])s4)CC3)c(F)c2)C(=O)O1 | In Vitro (MIC) S.aureus 25923 | = | 2
CC(=O)NC[C@H]1CN(c2ccc(N3CCCN(Cc4ccc([N+](=O)[O-])o4)CC3)c(F)c2)C(=O)O1 | In Vitro (MIC) S.aureus 25923 | = | 2
CC(=O)NC[C@H]1CN(c2ccc(N3CC4C(CNCc5ccc([N+](=O)[O-])o5)C4C3)c(F)c2)C(=O)O1 (stereo partly shown) | In Vitro (MIC) S.aureus 25923 | > | 8
CC(=O)NC[C@H]1CN(c2ccc(N3CCN(C(=O)c4cc(N(C)C)c([N+](=O)[O-])s4)CC3)c(F)c2)C(=O)O1 | In Vitro (MIC) S.aureus 25923 | = | 8
CC(=O)NC[C@H]1CN(c2ccc(N3CCCC(=O)C3)c(F)c2)C(=O)O1 | In Vitro (MIC) S.aureus 25923 | = | 16
CC(=O)NC[C@H]1CN(c2ccc(N3CCN(CC(=O)c4cccs4)CC3)c(F)c2)C(=O)O1 | In Vitro (MIC) S.aureus 25923 | = | 8

Where do the numbers come from? From patent US20040242591A1.
